targetOrTestSystem: Human Recombinant Cathepsin K (Homo sapiens)
Sequence (P43235 115-329): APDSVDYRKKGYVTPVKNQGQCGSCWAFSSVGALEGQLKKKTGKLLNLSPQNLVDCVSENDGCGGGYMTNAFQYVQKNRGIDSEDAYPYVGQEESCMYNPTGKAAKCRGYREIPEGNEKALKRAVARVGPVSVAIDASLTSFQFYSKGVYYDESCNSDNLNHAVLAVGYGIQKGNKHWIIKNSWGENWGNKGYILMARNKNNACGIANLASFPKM
assayProcedure: Cathepsin selectivity screening, Cat K (Z-Phe-Arg-AMC)
Assay type: biochemical
conditionParameters: Z-Phe-Arg-AMC substrate; Table 4; read-out: CatK IC50
In this section we review reported IC50 values for a set of compounds.

Field: example entries. Status: answers known.
CC(C)C[C@H](NC(=O)c1ccc(-c2cccc3nn(C)cc23)cc1F)C(=O)N[C@H](C#N)C[C@@H]1CCNC1=O [18a]	48.5 nM
COc1ccc(-c2ccc(C(=O)N[C@@H](CC(C)C)C(=O)N[C@H](C#N)C[C@@H]3CCNC3=O)c(Cl)c2)cc1 [18r]	124 nM
COc1ccc(-c2ccc(C(=O)N[C@@H](CC(C)C)C(=O)N[C@H](C#N)C[C@@H]3CCNC3=O)c(F)c2)cc1 [18b]	77 nM

Here is the next item to consider.
Qu. Entry COc1cccc(-c2ccc(C(=O)N[C@@H](CC(C)C)C(=O)N[C@H](C#N)C[C@@H]3CCNC3=O)c(Cl)c2)c1 [18n] : reported IC50 = ?
Ans. 329 nM

* * *

targetOrTestSystem: Human Recombinant Cathepsin B (Homo sapiens)
assayProcedure: Cathepsin selectivity screening, Cat B (Z-Phe-Arg-AMC)
Type: biochemical
conditionParameters: Z-Phe-Arg-AMC substrate; Table 4; read-out: CatB IC50
In this section we review reported IC50 values for a set of molecules.
Please respond with the number in µM and leave the unit unwritten.

COc1cccc(-c2ccc(C(=O)N[C@@H](CC(C)C)C(=O)N[C@H](C#N)C[C@@H]3CCNC3=O)c(Cl)c2)c1 [18n]	0.115
COc1ccc(-c2ccc(C(=O)N[C@@H](CC(C)C)C(=O)N[C@H](C#N)C[C@@H]3CCNC3=O)c(F)c2)cc1 [18b]	0.106
COc1ccc(-c2ccc(C(=O)N[C@@H](CC(C)C)C(=O)N[C@H](C#N)C[C@@H]3CCNC3=O)c(Cl)c2)cc1 [18r]	0.193

Here is the next item to consider.
Qu. Entry CC(C)C[C@H](NC(=O)c1ccc(-c2cccc3nn(C)cc23)cc1F)C(=O)N[C@H](C#N)C[C@@H]1CCNC1=O [18a] : reported IC50 = ?
Ans. 0.142

* * *

targetOrTestSystem: recombinant M^Pro (Severe acute respiratory syndrome coronavirus 2, UniProt P0DTD1)
assayProcedure: SARS-CoV-2 Mpro screening and IC50 determination (QS1 fluorogenic substrate, Drag assay)
Format: biochemical
conditionParameters: read-out: M^Pro (%inh)@10μM
propertyName: inhibition at 10 µM

Field: example entries. Status: answers known.
N#C[C@H](C[C@@H]1CCNC1=O)NC(=O)C1(NC(=O)c2ccc(Br)cc2)CCCCC1 [11e]	> 95%
CCC[C@H](NC(=O)c1ccc(-c2cccc(OCC)c2)cc1)C(=O)N[C@H](C#N)C[C@@H]1CCNC1=O [12i]	> 95%
COc1ccc(-c2ccc(C(=O)N[C@@H](CC3CCCCC3)C(=O)N[C@H](C#N)C[C@@H]3CCNC3=O)cc2)cc1 [12l]	< 95%
COc1ccc(-c2ccc(C(=O)N[C@@H](CC(C)C)C(=O)N[C@H](C#N)C[C@@H]3CCNC3=O)cc2)cc1OC [6f]	> 95%
CCOc1ccc(-c2ccc(C(=O)N[C@@H](CC(C)C)C(=O)N[C@H](C#N)C[C@@H]3CCNC3=O)cc2)cc1F [6m]	> 95%

Qu. Kindly state the measured inhibition at 10 µM obtained for N#CC(CC1CCNC1=O)NC(=O)C(CC1CCCCC1)NC(=O)c1ccc(Br)cc1 (stereo not drawn) [11d] with recombinant M^Pro (Severe acute respiratory syndrome coronavirus 2, UniProt P0DTD1).
Ans. < 95%

Qu. Kindly state the measured inhibition at 10 µM obtained for CCC[C@H](NC(=O)c1ccc(-c2cccc(OC)c2)cc1)C(=O)N[C@H](C#N)C[C@@H]1CCNC1=O [12e] with recombinant M^Pro (Severe acute respiratory syndrome coronavirus 2, UniProt P0DTD1).
Ans. > 95%

Qu. Kindly state the measured inhibition at 10 µM obtained for Cn1cc2c(-c3ccc(C(=O)N[C@@H](CC4CCCCC4)C(=O)N[C@H](C#N)C[C@@H]4CCNC4=O)cc3)cccc2n1 [12n] with recombinant M^Pro (Severe acute respiratory syndrome coronavirus 2, UniProt P0DTD1).
Ans. < 95%

Qu. Kindly state the measured inhibition at 10 µM obtained for COc1cccc(-c2ccc(C(=O)N[C@@H](CC3CCCCC3)C(=O)N[C@H](C#N)C[C@@H]3CCNC3=O)cc2)c1 [12k] with recombinant M^Pro (Severe acute respiratory syndrome coronavirus 2, UniProt P0DTD1).
Ans. < 95%

Qu. Kindly state the measured inhibition at 10 µM obtained for CC(C)C[C@H](NC(=O)c1ccc(-c2ccc3cnn(C)c3c2)cc1)C(=O)N[C@H](C#N)C[C@@H]1CCNC1=O [6n] with recombinant M^Pro (Severe acute respiratory syndrome coronavirus 2, UniProt P0DTD1).
Ans. > 95%

Qu. Kindly state the measured inhibition at 10 µM obtained for COc1ccc(-c2ccc(C(=O)N[C@@H](CC(C)C)C(=O)N[C@H](C#N)C[C@@H]3CCNC3=O)cc2)cn1 [6k] with recombinant M^Pro (Severe acute respiratory syndrome coronavirus 2, UniProt P0DTD1).
Ans. > 95%

Qu. Kindly state the measured inhibition at 10 µM obtained for CC(C)C[C@H](NC(=O)c1ccc(-c2ccc(F)cc2)cc1)C(=O)N[C@H](C#N)C[C@@H]1CCNC1=O [6b] with recombinant M^Pro (Severe acute respiratory syndrome coronavirus 2, UniProt P0DTD1).
Ans. > 95%

* * *

targetOrTestSystem: recombinant M^Pro (Severe acute respiratory syndrome coronavirus 2)
assayProcedure: SARS-CoV-2 Mpro screening and IC50 determination (QS1 fluorogenic substrate, Drag assay)
Assay type: biochemical
conditionParameters: recombinant M^Pro, 20 μM QS1 substrate; Table 5; read-out: IC50 (μM) M^Pro
propertyName: IC50 (µM)
Please respond with the number in µM and leave the unit unwritten.

COc1cccc(-c2ccc(C(=O)N3C[C@H]4[C@@H]([C@H]3C(=O)N[C@H](C#N)C[C@@H]3CCNC3=O)C4(C)C)c(F)c2)c1 [22c]	0.465
COc1cccc(-c2ccc(C(=O)N3C[C@@H]4CCC[C@@H]4[C@H]3C(=O)N[C@H](C#N)C[C@@H]3CCNC3=O)cc2)c1 [22g]	2.67
COc1ccc(-c2ccc(C(=O)N3C[C@H]4[C@@H]([C@H]3C(=O)N[C@H](C#N)C[C@@H]3CCNC3=O)C4(C)C)c(F)c2)cc1 [22d]	0.394
COc1ccc(-c2ccc(C(=O)N3C[C@@H]4CCC[C@@H]4[C@H]3C(=O)N[C@H](C#N)C[C@@H]3CCNC3=O)cc2)cc1 [22h]	2.99
COc1cccc(-c2ccc(C(=O)N3C[C@H]4[C@@H]([C@H]3C(=O)N[C@H](C#N)C[C@@H]3CCNC3=O)C4(C)C)cc2)c1 [22a]	1.02
COc1cccc(-c2ccc(C(=O)N3C[C@@H]4CCC[C@@H]4[C@H]3C(=O)N[C@H](C#N)C[C@@H]3CCNC3=O)c(F)c2)c1 [22i]	1.91
COc1ccc(-c2ccc(C(=O)N3C[C@H]4[C@@H]([C@H]3C(=O)N[C@H](C#N)C[C@@H]3CCNC3=O)C4(C)C)cc2)cc1 [22b]	1.13

Here is the next item to consider.
Qu. Entry COc1ccc(-c2ccc(C(=O)N3C[C@@H]4CCC[C@@H]4[C@H]3C(=O)N[C@H](C#N)C[C@@H]3CCNC3=O)c(F)c2)cc1 [22j] : reported IC50 = ?
Ans. 1.27

* * *

In this section we review reported IC50 values for a set of molecules.
targetOrTestSystem: recombinant M^Pro (Severe acute respiratory syndrome coronavirus 2)
assayProcedure: SARS-CoV-2 Mpro screening and IC50 determination (QS1 fluorogenic substrate, Drag assay)
Assay type: biochemical
conditionParameters: read-out: M^Pro IC50

Field: example entries. Status: answers known.
COc1ccccc1-c1ccc(C(=O)N[C@@H](CC(C)C)C(=O)N[C@H](C#N)C[C@@H]2CCNC2=O)cc1	> 1000 nM
COc1ccc(-c2ccc(C(=O)N[C@@H](CC(C)C)C(=O)N[C@H](C#N)C[C@@H]3CCNC3=O)cc2)cn1	> 1000 nM

Here is the next item to consider.
Qu. Entry CC(C)C[C@H](NC(=O)c1ccc(-c2cncc(Cl)c2)cc1)C(=O)N[C@H](C#N)C[C@@H]1CCNC1=O : reported IC50 = ?
Ans. > 1000 nM
